Values from ChEMBL document CHEMBL3585313

measured_target: Proto-oncogene tyrosine-protein kinase Src (Homo sapiens)
Sequence (P12931 2-536 limits assumed): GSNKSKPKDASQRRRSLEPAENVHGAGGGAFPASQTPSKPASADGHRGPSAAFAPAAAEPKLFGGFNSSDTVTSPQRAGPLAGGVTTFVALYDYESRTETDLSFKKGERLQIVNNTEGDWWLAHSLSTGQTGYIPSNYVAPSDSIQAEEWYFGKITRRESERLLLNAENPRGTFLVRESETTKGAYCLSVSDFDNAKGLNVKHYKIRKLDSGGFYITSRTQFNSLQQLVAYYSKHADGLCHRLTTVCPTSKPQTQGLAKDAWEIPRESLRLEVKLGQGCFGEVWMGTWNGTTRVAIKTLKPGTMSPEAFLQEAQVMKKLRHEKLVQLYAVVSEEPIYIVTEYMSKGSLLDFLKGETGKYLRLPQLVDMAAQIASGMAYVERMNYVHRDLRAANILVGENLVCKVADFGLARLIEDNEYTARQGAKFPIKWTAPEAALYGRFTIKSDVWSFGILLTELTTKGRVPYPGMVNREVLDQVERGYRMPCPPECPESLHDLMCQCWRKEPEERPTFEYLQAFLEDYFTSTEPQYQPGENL
measurement_protocol: Inhibition of human recombinant Src
observed_property: IC50 (µM)
Provide only the numeric value, understood in µM.

Param item = Cc1cc2cn[nH]c2cc1-c1cccc2c(N)c(C(N)=O)nnc12 ; retrieve measured IC50.
0.067

* * *

measurement_protocol: Oral bioavailability in beagle dog at 10 mg/kg
Format: ADME, organism-based, Canis lupus familiaris
test_settings: in vivo
observed_property: bioavailability (%)
All answers are understood in %, so give the number only.

Using the record for Cc1cc2cn[nH]c2cc1-c1cccc2c(N)c(C(N)=O)nnc12 , report its bioavailability.
89

* * *

measurement_protocol: Volume of distribution at steady state in C57/bl6 mouse at 1 mg/kg, iv and 10 mg/kg, po
Format: ADME, organism-based
test_settings: in vivo, read-out: Vdss
observed_property: Vd (L/kg)
Note: unit L/kg is implicit; provide only the numeric part.

Record request: Vd value, item Cc1cc2cn[nH]c2cc1-c1cccc2c(N)c(C(N)=O)nnc12
0.8
